Tested on: A549 NSCLC
TEST_DETAILS: NCI tumour cell line growth inhibition, 48 h
ENDPOINT: TGI

Solved cases (3 shown):
COc1cc(/C=N\O)nc(-c2ccccn2)c1; > 100 µM
CN(C)CCn1nc(N)c2nc3cc(C(F)(F)F)ccc3nc21; > 100 µM
CCOc1cc(C(C)(C)C)ccc1C1=N[C@@](C)(c2ccc(Cl)cc2)[C@@](C)(c2ccc(Cl)cc2)N1C(=O)N1CCN(CCS(C)(=O)=O)CC1; 5.31 µM

Exercise: So what's the measured TGI for this one? O=C(CCl)Nc1cc(O)c2c(c1)C(=O)c1cccc(O)c1C2=O
Solution: 48.5 µM

Exercise: Would you mind telling me what TGI value was observed for CC1=CC(=O)/C(=C/n2c(=S)[nH]c3ccccc32)C(=O)O1 ?
Solution: > 100 µM

Exercise: Endpoint output: TGI of CC1(C)c2ccccc2C(O)C12CCC(=O)CC2 (stereo not given) . Value?
Solution: 93.9 µM

Exercise: Look up TGI for this compound: Cc1cccc(NC2=NCCO2)c1Cl
Solution: > 100 µM

Exercise: I have this compound here, N=C(c1cccs1)C1(N2CCCCC2)CCCCC1 , and I need its recorded TGI.
Solution: 60.2 µM
